Sourced from paper PMC8490327

Experiment: Absolute quantitation of circulating PFAS
Format: in vivo, mouse
Settings: 12 weeks
Cut-off 0.8 fold on Absolute Plasma PFAS Levels: Fold Change PFAS Female vs. PFAS Male, inclusive. At or above means Yes; below means No.

Examples with answers:
O=C(O)C(F)(F)C(F)(F)C(F)(F)C(F)(F)C(F)(F)C(F)(F)C(F)(F)F = Yes
O=S(=O)(O)C(F)(F)C(F)(F)C(F)(F)C(F)(F)C(F)(F)C(F)(F)F = Yes
O=S(=O)(O)C(F)(F)C(F)(F)C(F)(F)C(F)(F)C(F)(F)C(F)(F)C(F)(F)C(F)(F)F [PFOS, Perfluorooctane sulfonate] = No

Now look at this entry.
Does N.O=C(O)C(F)(OC(F)(F)C(F)(F)C(F)(F)F)C(F)(F)F (centres unmarked) have a reported Absolute Plasma PFAS Levels: Fold Change PFAS Female vs. PFAS Male of at least 0.8 fold? Yes
